biological target: human angiotensin 2 type 1 receptor (human) (UniProt P30556); experiment: cell-based or functional assay
Sequence (P30556 whole entry): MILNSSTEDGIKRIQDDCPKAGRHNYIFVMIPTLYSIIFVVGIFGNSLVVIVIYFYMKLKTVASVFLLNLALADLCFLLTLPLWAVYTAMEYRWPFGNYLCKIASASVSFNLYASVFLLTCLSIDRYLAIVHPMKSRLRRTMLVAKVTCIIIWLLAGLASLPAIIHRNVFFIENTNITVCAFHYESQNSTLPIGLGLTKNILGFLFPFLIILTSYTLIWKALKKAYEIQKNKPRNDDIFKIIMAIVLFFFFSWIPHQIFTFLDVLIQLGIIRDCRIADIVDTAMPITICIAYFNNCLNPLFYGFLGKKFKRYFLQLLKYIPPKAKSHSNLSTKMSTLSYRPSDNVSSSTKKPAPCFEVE
Where no end group is shown, it is not given here.
Reported Endpoint: b-arrestin2 EC50 (nM)
Report only the number, with the unit nM understood.

Sample records with b-arrestin2 EC50:
- Binder: "RVYHHPA (N-terminal Sar; C-terminal acid) [SEQ ID NO: 22 (Sar-Arg-Val-Tyr-His-His-Pro-Ala-OH)]"
  Measured Number: 270
- Binder: "VYIHPF (cyclic) [SEQ ID NO: 38 (Cyclo(Val-Tyr-Ile-His-Pro-Phe))]"
  Measured Number: 680
- Binder: "RVYIHP (N-terminal Sar; C-terminal norvaline) [SEQ ID NO: 35 (Sar-Arg-Val-Tyr-Ile-His-Pro-NVA-OH)]"
  Measured Number: 12
- Binder: "ARVYIHPA (N-methyl residue; C-terminal acid) [SEQ ID NO: 34 (NMAla-Arg-Val-Tyr-Ile-His-Pro-Ala-OH)]"
  Measured Number: 25
- Binder: "DRVYYHP-NH2 [SEQ ID NO: 57 (Asp-Arg-Val-Tyr-Tyr-His-Pro-NH2)]"
  Measured Number: 430
- Binder: "RVYVHPA (N-terminal Me2Gly; C-terminal acid) [SEQ ID NO: 31 (Me2G-Arg-Val-Tyr-Val-His-Pro-Ala-OH)]"
  Measured Number: 100
- Binder: "FVYIHPFVYIHPFVYIHP (cyclic) [SEQ ID NO: 37 (Cyclo(Phe-Val-Tyr-Ile-His-Pro-Phe-Val-Tyr-Ile-His-Pro-Phe-Val-Tyr-Ile-His-Pro))]"
  Measured Number: 1700

Qu. Could you share which b-arrestin2 EC50 value was measured for RVYYHPA (N-terminal Sar; C-terminal acid) [SEQ ID NO: 19 (Sar-Arg-Val-Tyr-Tyr-His-Pro-Ala-OH)] ?
Ans. 31

FYI, the data here is from patent US20240025949A1.
